# Test system: hippocampus GFAP
# Measurement Protocol: Number of hippocampus astrocytes with GFAP positive expression in MPTP Parkinson's disease model mouse (immunohistochemistry)
# Type: in vivo
# Study Conditions: hippocampus, MPTP Parkinson's disease model mouse, immunohistochemistry
// classify(record): look up Positive cell number (astrocytes with GFAP positive expression) in ranges low group: < 60; middle group: ≥ 60 and < 70; high group: ≥ 70

Compound	Target Of Assay	Answer Label
CCN(CC)C(=O)Oc1ccc(/C=C/S(=O)(=O)Cc2ccc(C(C)(C)C)cc2)cc1OC(=O)N(CC)CC [Compound G1-1]	hippocampus GFAP	middle group
CNC(=O)Oc1ccc(/C=C/S(=O)(=O)CC(Cl)c2ccc(Cl)c([N+](=O)[O-])c2)cc1O (stereo not shown) [Compound E2-2]	hippocampus GFAP	low group
O=C(/C=C/c1ccc(O)c(O)c1)OCCc1ccccc1 [Positive control group, caffeic acid phenethyl ester, reference compound]	hippocampus GFAP	high group
CC(Br)C(Br)COc1cc(/C=C/S(=O)(=O)CCc2ccc(OCC(F)(F)F)cc2)ccc1OC(=O)Nc1ccsc1 (stereo not shown) [Compound K1-3]	hippocampus GFAP	middle group
O=S(=O)(/C=C/c1ccc(O)c(O)c1)CCCc1ccccc1 [Compound 3C, reference compound]	hippocampus GFAP	high group
CCN(CC)C(=O)Oc1ccc(/C=C/S(=O)(=O)Cc2ccc(Cl)cc2)cc1OC(=O)N(CC)CC [Compound D1-1]	hippocampus GFAP	low group
CCN(C)C(=O)Oc1ccc(/C=C/S(=O)(=O)CC(c2ccc(-c3ccc(OC)c(OC)c3)cc2)[N+](=O)[O-])cc1OC(=O)N(C)CC (stereo not shown) [Compound M1-1]	hippocampus GFAP	low group
Cc1ccc(S(=O)(=O)Oc2ccc(CS(=O)(=O)/C=C/c3ccc(OS(=O)(=O)c4ccc(C)cc4)c(OC(=O)N(C)S(=O)(=O)c4ccc(C)cc4)c3)cc2)cc1 [Compound S6-6]	hippocampus GFAP	low group

====

Known Expression (CD11b/GAPDH) of a selection of compounds
# Tested on: midbrain CD11b
# Measurement Protocol: Midbrain CD11b protein expression in MPTP Parkinson's disease model mouse (western-blotting)
# Type: in vivo
# Study Conditions: midbrain, MPTP Parkinson's disease model mouse, western-blotting

Compound	Expression (CD11b/GAPDH)
CNC(=O)Oc1ccc(/C=C/S(=O)(=O)CC(Cl)c2ccc(Cl)c([N+](=O)[O-])c2)cc1O (stereo not shown) [Compound E2-2]	1.17
COc1cc(/C=C/S(=O)(=O)Cc2cc(OC)c(OC)c(OC)c2)ccc1OC(=O)N(c1ccccc1)c1ccccc1	1.15
O=C(NC(=O)C(F)(F)F)Oc1ccc(/C=C/S(=O)(=O)C(F)(F)c2ccc(Oc3ccccn3)cc2)cc1OC(=O)C(F)(F)C(F)(F)F	1.09
CCN(CC)C(=O)Oc1ccc(/C=C/S(=O)(=O)CCCc2ccccc2)cc1OC(=O)N(CC)CC	1.11
C=CCOc1ccc(C/C=C/S(=O)(=O)/C=C/c2ccc(OC(C)=O)c(OC(=O)N(CC=C)CC=C)c2)cc1	1.09
O=S(=O)(/C=C/c1ccc(O)c(O)c1)Cc1ccc(C(F)(F)F)cc1 [Compound 3B, reference compound]	1.31
O=S(=O)(/C=C/c1ccc(O)c(O)c1)Cc1ccc(Cl)cc1 [Compound 3D, reference compound]	1.30
CCN(CC)C(=O)Oc1ccc(/C=C/S(=O)(=O)Cc2ccc(C(C)(C)C)cc2)cc1OC(=O)N(CC)CC	0.50
COc1ccc(CC(=O)Oc2ccc(C(N)CS(=O)(=O)/C=C/c3ccc(OC(C)(C)C)c(OC(=O)N(C)c4ccccc4)c3)cc2)cc1 (stereo not shown) [Compound P1-3]	1.09
Cc1ccc(S(=O)(=O)Oc2ccc(CS(=O)(=O)/C=C/c3ccc(OS(=O)(=O)c4ccc(C)cc4)c(OC(=O)N(C)S(=O)(=O)c4ccc(C)cc4)c3)cc2)cc1	0.62
CC[Si](CC)(Oc1ccc(C(Cl)S(=O)(=O)/C=C/c2ccc(OC(=O)N3CC(C)OC(C)C3)c(OC(=O)c3cccc(Cl)c3OC)c2)cc1)c1ccccc1 (stereo not shown)	1.25
O=C(/C=C/c1ccc(O)c(O)c1)OCCc1ccccc1 [Positive control group, caffeic acid phenethyl ester, reference compound]	1.28
CN(C)c1ccc(CC(=O)Oc2cc(/C=C/S(=O)(=O)C(Br)c3ccc(Cc4ccc(N(C)C)cc4)cc3)ccc2OC(=O)N2CCCC2C(F)(F)F)cc1 (stereo not shown)	0.83

====

# Target Of Assay: acetylcholinesterase (AchE) (Homo sapiens, UniProt P22303)
# Sequence (P22303 32-614, species assumed): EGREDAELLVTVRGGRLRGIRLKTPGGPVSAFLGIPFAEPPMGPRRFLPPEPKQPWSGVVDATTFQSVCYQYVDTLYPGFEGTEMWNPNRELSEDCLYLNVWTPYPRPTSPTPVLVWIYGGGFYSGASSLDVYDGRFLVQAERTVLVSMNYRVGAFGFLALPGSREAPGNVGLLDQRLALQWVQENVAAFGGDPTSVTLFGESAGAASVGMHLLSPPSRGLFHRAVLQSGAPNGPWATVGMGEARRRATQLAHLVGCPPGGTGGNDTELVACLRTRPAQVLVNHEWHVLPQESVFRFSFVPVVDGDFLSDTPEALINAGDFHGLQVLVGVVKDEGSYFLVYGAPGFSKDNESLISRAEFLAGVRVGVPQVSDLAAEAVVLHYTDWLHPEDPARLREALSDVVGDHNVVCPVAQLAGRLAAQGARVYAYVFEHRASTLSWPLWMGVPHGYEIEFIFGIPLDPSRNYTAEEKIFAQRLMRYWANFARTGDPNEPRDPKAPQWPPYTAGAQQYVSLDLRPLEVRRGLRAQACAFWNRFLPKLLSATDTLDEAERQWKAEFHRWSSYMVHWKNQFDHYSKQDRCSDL
# Measurement Protocol: biochemical
Known IC50 of a selection of molecules

Molecule	IC50 (µM)
Cc1ccc(S(=O)(=O)Oc2ccc(CS(=O)(=O)/C=C/c3ccc(OS(=O)(=O)c4ccc(C)cc4)c(OC(=O)N(C)S(=O)(=O)c4ccc(C)cc4)c3)cc2)cc1 [Compound S6-6]	15.6
COc1ccc(CC(=O)Oc2ccc(/C(C)=C/S(=O)(=O)/C=C/c3ccc(OC(=O)N(C)C)c(O[Si](C)(C)CCl)c3)cc2)cc1 [Compound P1-7]	21.4
CNC(=O)Oc1ccc(/C=C/S(=O)(=O)CC(Cl)c2ccc(Cl)c([N+](=O)[O-])c2)cc1O (centres unmarked) [Compound E2-2]	51.3
Cc1ccc(N2CCN(C(=O)Oc3ccc(/C=C/S(=O)(=O)CCCC(c4ccc(OC(=O)CN(C)C)cc4)N(C)C)cc3OC(=O)N(C)c3ccccc3)CC2)cc1 (centres unmarked) [Compound P1-1]	11.3
CCN(C)C(=O)Oc1ccc(/C=C/S(=O)(=O)CC(c2ccc(-c3ccc(OC)c(OC)c3)cc2)[N+](=O)[O-])cc1OC(=O)N(C)CC (centres unmarked) [Compound M1-1]	6.6
CC(C)N(c1ccc(CCS(=O)(=O)/C=C/c2ccc(OC(=O)N(C)c3ccc(I)cc3)c(OCCOCc3ccccc3)c2)cc1)C(C)C [Compound A1-3]	25.2
COCCN(C)C(=O)Oc1cc(/C=C/S(=O)(=O)CCc2cccc(-c3ccc(C)o3)c2)ccc1OC(C)=O [Compound J1-4]	8.54
COc1ccc(CC(=O)Oc2ccc(C(N)CS(=O)(=O)/C=C/c3ccc(OC(C)(C)C)c(OC(=O)N(C)c4ccccc4)c3)cc2)cc1 (centres unmarked) [Compound P1-3]	14.4

====

# Tested on: hippocampus CD11b
# Measurement Protocol: Number of hippocampus microglial cells with CD11b positive expression in MPTP Parkinson's disease model mouse (immunohistochemistry)
# Format: in vivo
# Study Conditions: hippocampus, MPTP Parkinson's disease model mouse, immunohistochemistry
Known Positive cell number (microglial cells with CD11b positive expression) of a selection of compounds
Observed Property: Positive cell number (microglial cells with CD11b positive expression)

Compound	Numeric Result
CCN(CC)C(=O)Oc1ccc(/C=C/S(=O)(=O)Cc2ccc(C(F)(F)F)cc2)cc1OC(=O)N(CC)CC	9
CC(=O)Oc1ccc(/C=C/S(=O)(=O)Cc2c(F)c(F)c(F)c(F)c2F)cc1OC(=O)NC(=O)c1ccc([N+](=O)[O-])c(C)c1	12
Cc1ccc(N2CCN(C(=O)Oc3ccc(/C=C/S(=O)(=O)CCCC(c4ccc(OC(=O)CN(C)C)cc4)N(C)C)cc3OC(=O)N(C)c3ccccc3)CC2)cc1 (stereo not drawn) [Compound P1-1]	7

====

# Tested on: hippocampus CD11b
# Measurement Protocol: Number of hippocampus microglial cells with CD11b positive expression in MPTP Parkinson's disease model mouse (immunohistochemistry)
# Format: in vivo
# Study Conditions: hippocampus, MPTP Parkinson's disease model mouse, immunohistochemistry
# note: exactly 10 is not below, so it is f; use t for Positive cell number (microglial cells with CD11b positive expression) strictly under it

Compound	Target Of Assay	Answer Label
O=S(=O)(/C=C/c1ccc(O)c(O)c1)Cc1ccc(C(F)(F)F)cc1 [Compound 3B, reference compound]	hippocampus CD11b	f
CC[Si](CC)(Oc1ccc(C(Cl)S(=O)(=O)/C=C/c2ccc(OC(=O)N3CC(C)OC(C)C3)c(OC(=O)c3cccc(Cl)c3OC)c2)cc1)c1ccccc1 (stereo not shown)	hippocampus CD11b	f
COc1cc(/C=C/S(=O)(=O)Cc2cc(OC)c(OC)c(OC)c2)ccc1OC(=O)N(c1ccccc1)c1ccccc1	hippocampus CD11b	f
CC(C)N(c1ccc(CCS(=O)(=O)/C=C/c2ccc(OC(=O)N(C)c3ccc(I)cc3)c(OCCOCc3ccccc3)c2)cc1)C(C)C	hippocampus CD11b	f
O=C(/C=C/c1ccc(O)c(O)c1)OCCc1ccccc1 [Positive control group, caffeic acid phenethyl ester, reference compound]	hippocampus CD11b	f
CN(C)c1ccc(CC(=O)Oc2cc(/C=C/S(=O)(=O)C(Br)c3ccc(Cc4ccc(N(C)C)cc4)cc3)ccc2OC(=O)N2CCCC2C(F)(F)F)cc1 (stereo not shown)	hippocampus CD11b	f
CCN(C)C(=O)Oc1ccc(/C=C/S(=O)(=O)CC(c2ccc(-c3ccc(OC)c(OC)c3)cc2)[N+](=O)[O-])cc1OC(=O)N(C)CC (stereo not shown)	hippocampus CD11b	t
CCN(CC)C(=O)Oc1ccc(/C=C/S(=O)(=O)CCCc2ccccc2)cc1OC(=O)N(CC)CC	hippocampus CD11b	t
CCN(CC)C(=O)Oc1ccc(/C=C/S(=O)(=O)Cc2ccc(C(C)(C)C)cc2)cc1OC(=O)N(CC)CC	hippocampus CD11b	t
O=S(=O)(/C=C/c1ccc(O)c(O)c1)Cc1ccc(Cl)cc1 [Compound 3D, reference compound]	hippocampus CD11b	f
COc1ccc(CC(=O)Oc2ccc(/C(C)=C/S(=O)(=O)/C=C/c3ccc(OC(=O)N(C)C)c(O[Si](C)(C)CCl)c3)cc2)cc1 [Compound P1-7]	hippocampus CD11b	t
O=S(=O)(/C=C/c1ccc(O)c(O)c1)CCCc1ccccc1 [Compound 3C, reference compound]	hippocampus CD11b	f
COc1ccc(CC(=O)Oc2ccc(C(N)CS(=O)(=O)/C=C/c3ccc(OC(C)(C)C)c(OC(=O)N(C)c4ccccc4)c3)cc2)cc1 (stereo not shown) [Compound P1-3]	hippocampus CD11b	f
